Biological target: LRRK2 (Homo sapiens, UniProt Q5S007)
Sequence (Q5S007 whole entry): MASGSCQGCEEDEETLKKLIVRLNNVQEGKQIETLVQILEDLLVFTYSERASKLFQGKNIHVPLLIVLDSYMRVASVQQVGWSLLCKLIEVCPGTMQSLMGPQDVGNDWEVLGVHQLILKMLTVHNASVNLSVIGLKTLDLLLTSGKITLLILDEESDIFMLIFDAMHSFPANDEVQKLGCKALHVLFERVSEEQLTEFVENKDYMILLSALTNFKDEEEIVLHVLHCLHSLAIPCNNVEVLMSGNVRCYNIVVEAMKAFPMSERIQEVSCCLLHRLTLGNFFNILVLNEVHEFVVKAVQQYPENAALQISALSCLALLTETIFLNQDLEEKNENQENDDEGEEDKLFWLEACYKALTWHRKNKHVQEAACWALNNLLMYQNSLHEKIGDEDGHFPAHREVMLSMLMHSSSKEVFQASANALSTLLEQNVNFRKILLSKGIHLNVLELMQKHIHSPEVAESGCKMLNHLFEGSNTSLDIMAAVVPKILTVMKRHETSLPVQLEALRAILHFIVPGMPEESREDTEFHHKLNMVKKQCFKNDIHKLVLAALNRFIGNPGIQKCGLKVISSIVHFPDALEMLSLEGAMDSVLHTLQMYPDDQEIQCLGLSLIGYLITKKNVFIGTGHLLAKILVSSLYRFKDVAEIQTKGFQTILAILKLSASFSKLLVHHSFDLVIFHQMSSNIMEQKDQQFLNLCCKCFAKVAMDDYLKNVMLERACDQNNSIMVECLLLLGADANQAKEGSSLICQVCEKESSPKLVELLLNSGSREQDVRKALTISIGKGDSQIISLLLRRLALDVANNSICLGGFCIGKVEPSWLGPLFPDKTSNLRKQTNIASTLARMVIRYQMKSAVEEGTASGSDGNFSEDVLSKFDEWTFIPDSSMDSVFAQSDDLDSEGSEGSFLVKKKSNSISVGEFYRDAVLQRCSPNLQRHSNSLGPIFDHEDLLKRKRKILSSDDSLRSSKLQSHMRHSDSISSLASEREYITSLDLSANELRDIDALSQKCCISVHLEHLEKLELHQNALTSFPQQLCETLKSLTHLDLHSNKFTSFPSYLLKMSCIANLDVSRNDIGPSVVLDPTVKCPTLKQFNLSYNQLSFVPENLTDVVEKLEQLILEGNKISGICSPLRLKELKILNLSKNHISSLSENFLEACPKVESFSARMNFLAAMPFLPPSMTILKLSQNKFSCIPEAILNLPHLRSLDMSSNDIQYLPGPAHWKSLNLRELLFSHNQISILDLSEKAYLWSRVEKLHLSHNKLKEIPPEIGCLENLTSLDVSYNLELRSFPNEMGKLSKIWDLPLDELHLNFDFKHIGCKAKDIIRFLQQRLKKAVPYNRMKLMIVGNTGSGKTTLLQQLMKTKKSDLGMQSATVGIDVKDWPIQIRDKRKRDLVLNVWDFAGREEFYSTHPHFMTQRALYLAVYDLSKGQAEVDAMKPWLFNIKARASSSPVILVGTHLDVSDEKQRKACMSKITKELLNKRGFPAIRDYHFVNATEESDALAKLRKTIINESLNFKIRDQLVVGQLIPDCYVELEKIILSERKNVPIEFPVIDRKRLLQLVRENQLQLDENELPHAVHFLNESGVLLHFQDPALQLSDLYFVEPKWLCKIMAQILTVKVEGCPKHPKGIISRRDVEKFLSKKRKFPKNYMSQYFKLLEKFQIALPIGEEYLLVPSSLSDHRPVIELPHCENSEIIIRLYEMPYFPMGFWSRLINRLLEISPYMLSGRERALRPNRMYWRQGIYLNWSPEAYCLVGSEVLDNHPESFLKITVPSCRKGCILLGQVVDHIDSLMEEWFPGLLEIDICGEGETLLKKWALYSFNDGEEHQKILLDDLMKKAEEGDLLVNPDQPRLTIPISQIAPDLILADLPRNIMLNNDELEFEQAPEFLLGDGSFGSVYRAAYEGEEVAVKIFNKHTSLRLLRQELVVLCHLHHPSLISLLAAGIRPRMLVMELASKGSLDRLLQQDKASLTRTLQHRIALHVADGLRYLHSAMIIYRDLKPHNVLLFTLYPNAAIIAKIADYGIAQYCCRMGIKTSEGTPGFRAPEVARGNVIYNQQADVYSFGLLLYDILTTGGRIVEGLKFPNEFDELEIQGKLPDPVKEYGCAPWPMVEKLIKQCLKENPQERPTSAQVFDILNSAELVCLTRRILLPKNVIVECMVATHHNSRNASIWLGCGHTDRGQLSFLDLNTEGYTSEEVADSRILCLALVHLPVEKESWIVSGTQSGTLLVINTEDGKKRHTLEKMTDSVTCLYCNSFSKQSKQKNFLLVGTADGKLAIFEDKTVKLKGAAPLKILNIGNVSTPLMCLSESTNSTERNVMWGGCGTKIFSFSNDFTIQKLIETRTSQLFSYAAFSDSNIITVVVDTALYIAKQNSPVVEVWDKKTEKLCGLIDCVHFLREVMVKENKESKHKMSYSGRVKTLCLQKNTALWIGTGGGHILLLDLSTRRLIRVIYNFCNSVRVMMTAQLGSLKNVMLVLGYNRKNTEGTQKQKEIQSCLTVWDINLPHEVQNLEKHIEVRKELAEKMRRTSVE
quantity.name: IC50 (nM)
Answer with a number only, understood to be in nM.

>  <compound>
CO[C@H]1COC[C@H]1n1c(C#N)cc2cnc(Nc3cn(C)nc3OC(C)C)nc21

>  <result.unit>
nM

>  <IC50>
114

$$$$
>  <compound>
CC(C)Oc1nn(C)cc1Nc1ncc2cc(C#N)n(C3COC3)c2n1

>  <result.unit>
nM

>  <IC50>
44

$$$$
>  <compound>
CO[C@H]1COC[C@H]1n1c(C#N)cc2cnc(Nc3cn(C4COC4)nc3OC3CC3)nc21

>  <result.unit>
nM

>  <IC50>
135

$$$$
>  <compound>
CO[C@H]1COC[C@H]1n1c(C#N)cc2cnc(Nc3cn(C(C)C)nc3OC3CC3)nc21

>  <result.unit>
nM

>  <IC50>
133

$$$$
>  <compound>
CC[C@@H](C)Oc1nn(C)cc1Nc1ncc2cc(C#N)n([C@@H]3COC[C@@H]3OC)c2n1

>  <result.unit>
nM

>  <IC50>
119

$$$$

Q: Bench note: what IC50 did CO[C@H]1COC[C@H]1n1c(C#N)cc2cnc(Nc3cn(C)nc3OC3CC(F)(F)C3)nc21 show?
A: 187

Q: Try the compound CO[C@H]1COC[C@H]1n1c(C#N)cc2cnc(Nc3cn(C4COC4)nc3OC(C)C)nc21
A: 201

Q: Try the compound C[C@@H]1COCC[C@H]1n1c(C#N)cc2cnc(Nc3cn(C)nc3OC3COC3)nc21 (single isomer, unassigned) [Example 83]
A: 134

Q: Try the compound CO[C@H]1COC[C@H]1n1c(C#N)cc2cnc(Nc3ccnc4c3O[C@H](C)CCO4)nc21
A: 597

Q: Try the compound Cn1cc(Nc2ncc3cc(C#N)n(C4CCOC4)c3n2)c(OC2COC2)n1 (single isomer, unassigned) [Example 53]
A: 266

Q: Try the compound CO[C@H]1COC[C@H]1n1c(C#N)cc2cnc(Nc3cn(C(C)(C)C#N)nc3OC3CC3)nc21
A: 31

Q: Try the compound CO[C@H]1COC[C@H]1n1c(C#N)cc2cnc(Nc3cn(C(C)(C)C#N)nc3OC(C)C)nc21
A: 42

Q: Try the compound Cn1cc(Nc2ncc3cc(C#N)n(C4CCCOC4)c3n2)c(OC2COC2)n1 (single isomer, unassigned) [Example 82]
A: 104

Q: Try the compound Cn1cc(Nc2ncc3cc(C#N)n(C4CCCOC4)c3n2)c(OC2COC2)n1 (single isomer, unassigned) [Example 81]
A: 183

Q: Try the compound CO[C@H]1COC[C@H]1n1c(C#N)cc2cnc(Nc3cn(C(C)C#N)nc3OC(C)C)nc21 (single isomer, unassigned)
A: 27

###

Biological target: full-length LRRK2 G2019S (Homo sapiens, UniProt Q5S007, G2019S)
Construct: DYKDDDDK (FLAG)
Sequence (Q5S007 whole entry G2019S): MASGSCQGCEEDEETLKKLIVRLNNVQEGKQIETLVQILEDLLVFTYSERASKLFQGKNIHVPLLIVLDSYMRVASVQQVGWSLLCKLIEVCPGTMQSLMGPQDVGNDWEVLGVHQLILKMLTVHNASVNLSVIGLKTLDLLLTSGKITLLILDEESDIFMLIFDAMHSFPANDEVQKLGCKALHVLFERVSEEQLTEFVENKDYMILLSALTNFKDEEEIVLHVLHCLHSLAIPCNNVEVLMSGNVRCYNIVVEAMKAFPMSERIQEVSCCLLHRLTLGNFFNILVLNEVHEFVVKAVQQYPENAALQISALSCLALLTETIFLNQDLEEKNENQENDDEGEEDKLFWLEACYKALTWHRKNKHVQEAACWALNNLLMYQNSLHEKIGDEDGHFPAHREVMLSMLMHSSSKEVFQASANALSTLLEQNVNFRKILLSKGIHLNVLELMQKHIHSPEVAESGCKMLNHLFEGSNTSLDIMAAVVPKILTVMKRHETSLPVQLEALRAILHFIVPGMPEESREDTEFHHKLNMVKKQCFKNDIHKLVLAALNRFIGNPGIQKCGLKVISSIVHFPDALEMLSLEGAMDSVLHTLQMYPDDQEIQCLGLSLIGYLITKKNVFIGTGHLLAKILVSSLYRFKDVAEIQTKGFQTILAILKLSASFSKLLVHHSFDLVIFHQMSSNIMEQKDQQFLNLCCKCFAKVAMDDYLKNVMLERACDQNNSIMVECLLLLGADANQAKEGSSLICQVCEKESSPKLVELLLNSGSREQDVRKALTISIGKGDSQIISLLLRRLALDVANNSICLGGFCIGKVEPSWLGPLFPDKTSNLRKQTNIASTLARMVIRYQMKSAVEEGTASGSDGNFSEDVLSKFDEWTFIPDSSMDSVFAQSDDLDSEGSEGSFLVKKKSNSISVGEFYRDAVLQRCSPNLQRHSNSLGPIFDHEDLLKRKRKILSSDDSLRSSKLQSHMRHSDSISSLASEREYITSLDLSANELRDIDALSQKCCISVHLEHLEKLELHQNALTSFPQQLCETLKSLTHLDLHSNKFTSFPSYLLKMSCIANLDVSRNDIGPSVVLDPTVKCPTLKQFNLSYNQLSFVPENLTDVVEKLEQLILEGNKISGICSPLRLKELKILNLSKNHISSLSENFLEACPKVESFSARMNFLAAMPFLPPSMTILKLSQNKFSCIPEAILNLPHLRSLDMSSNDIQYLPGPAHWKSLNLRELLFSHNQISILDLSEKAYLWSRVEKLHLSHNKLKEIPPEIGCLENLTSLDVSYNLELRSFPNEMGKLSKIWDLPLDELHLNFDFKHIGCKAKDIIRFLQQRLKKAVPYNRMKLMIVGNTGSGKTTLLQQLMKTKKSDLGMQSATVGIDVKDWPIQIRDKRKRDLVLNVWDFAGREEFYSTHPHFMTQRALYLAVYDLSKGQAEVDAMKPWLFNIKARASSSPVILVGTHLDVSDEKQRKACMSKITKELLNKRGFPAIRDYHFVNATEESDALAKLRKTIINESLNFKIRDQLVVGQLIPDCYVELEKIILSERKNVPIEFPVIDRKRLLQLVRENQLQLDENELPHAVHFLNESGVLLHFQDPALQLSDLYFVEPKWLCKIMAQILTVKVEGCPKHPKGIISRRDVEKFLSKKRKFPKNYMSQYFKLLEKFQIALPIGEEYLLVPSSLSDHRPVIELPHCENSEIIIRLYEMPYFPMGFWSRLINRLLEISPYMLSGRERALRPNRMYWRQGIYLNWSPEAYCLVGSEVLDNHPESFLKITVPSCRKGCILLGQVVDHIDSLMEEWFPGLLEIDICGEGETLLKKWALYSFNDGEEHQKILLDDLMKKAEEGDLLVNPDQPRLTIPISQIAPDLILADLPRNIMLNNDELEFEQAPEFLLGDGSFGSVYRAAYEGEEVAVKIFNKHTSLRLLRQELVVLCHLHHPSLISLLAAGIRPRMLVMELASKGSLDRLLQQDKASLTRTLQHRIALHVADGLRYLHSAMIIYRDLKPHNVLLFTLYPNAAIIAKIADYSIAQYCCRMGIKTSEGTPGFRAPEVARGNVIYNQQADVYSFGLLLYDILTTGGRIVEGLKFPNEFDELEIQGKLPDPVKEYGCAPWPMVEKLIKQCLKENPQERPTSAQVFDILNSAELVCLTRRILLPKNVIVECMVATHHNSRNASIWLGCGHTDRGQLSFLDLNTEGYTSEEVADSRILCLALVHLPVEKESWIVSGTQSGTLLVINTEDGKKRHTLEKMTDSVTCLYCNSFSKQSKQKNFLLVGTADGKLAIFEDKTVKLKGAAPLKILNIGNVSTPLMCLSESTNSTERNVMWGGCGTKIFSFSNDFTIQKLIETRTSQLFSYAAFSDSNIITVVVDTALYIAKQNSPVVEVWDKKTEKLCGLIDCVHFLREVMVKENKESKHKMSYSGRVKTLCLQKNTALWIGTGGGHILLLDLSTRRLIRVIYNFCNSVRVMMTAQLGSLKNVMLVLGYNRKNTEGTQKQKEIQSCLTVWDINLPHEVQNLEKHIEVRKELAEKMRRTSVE
Assay: LRRK2-G2019S kinase activity assay (Lanthascreen TR-FRET)
Conditions: 1.1 mM ATP
quantity.name: pIC50
pIC50 field: float, defined as -log10 of concentration (mol/L).

Worked cases, answers included:
>  <compound>
CC(C)Oc1nn(C)cc1Nc1ncc2cc(C#N)n([C@@H]3CO[C@H]3C)c2n1 (single isomer, unassigned) [Example 79]

>  <recorded.number>
8.22

$$$$
>  <compound>
[2H]C([2H])([2H])n1cc(Nc2ncc3cc(C#N)n([C@@H](C)COC)c3n2)c(OC2CC(O)C2(C)C)n1 (stereo partly drawn) [Example 108]

>  <recorded.number>
8.00

$$$$
>  <compound>
CC(C(F)F)n1cc(Nc2ncc3cc(C#N)n([C@H]4COC[C@@H]4C)c3n2)c(OC2COC2)n1 (single isomer, unassigned) [Example 5]

>  <recorded.number>
8.30

$$$$
>  <compound>
[2H]C([2H])([2H])n1cc(Nc2ncc3cc(C#N)n([C@@H](C)COC)c3n2)c(OC2CCOC2)n1 (single isomer, unassigned) [Example 101]

>  <recorded.number>
7.47

$$$$
>  <compound>
COCC(C)n1c(C#N)cc2cnc(Nc3cn(C4CCC(C)(O)CC4)nc3OC3CC3)nc21 (stereo not drawn) [Example 106]

>  <recorded.number>
7.26

$$$$

Q: Bench note: what pIC50 did [2H]C([2H])([2H])n1cc(Nc2ncc3cc(C#N)n(C4COCC4C)c3n2)c(OC2CCC2(C)O)n1 (single isomer, unassigned) [Example 141] show?
A: 7.27
